protocol: qHTS for Inhibitors of human tyrosyl-DNA phosphodiesterase 1 (TDP1): qHTS in cells in presence of CPT; also: nearly all actives have a fitted effect of over 55% in size
measurementParameters: chicken DT40 Tdp1-/-;hTDP1 cells + 20 nM CPT, ATP luminescence, 48 h; series mostly up to 46.2 µM
In all, about 420,000 compounds went through this assay and about 50,000 (12%) were called active. Another 26% or so got no clear call; they are omitted. Calls follow the shape of the dose curve; as a rule, active = well fitted inhibition curve with a large enough effect; inconclusive = small, poorly fitted or top-dose-only effect; inactive = flat fitted curve, though single readings scatter. Only a selection was taken, and actives are over-represented in it overall.
Just give me one of these, please: Yes = active, No = inactive

Known results for molecules:
molecule	assignedClass
COc1cccc(N2CC(NS(=O)(=O)c3cccs3)CC2=O)c1 (stereo not given)	No
O=C(c1ccc2c(c1)N(Cc1ccccc1)C(=O)c1ccccc1S2(=O)=O)N1CCCC1	Yes
COc1cc(C)ccc1OCC(=O)OCC(=O)c1ccc[nH]1	No
O=C(c1cccc(Br)c1)N1CCN(C2=NS(=O)(=O)c3ccccc32)CC1	No
COc1ccc2c(c1OC)C(=O)OC2c1c(O)nc(SC)n(-c2ccccc2)c1=O (stereo not given)	No
CCCCN(C)C(=O)c1ccc2c(c1)N(CC)C(=O)c1ccccc1S2(=O)=O	No

Prompt: Each molecule tested received a call. Report the one for O=C(O)C1CCN1C1CCCCC1 (stereo not given) .
Response: No

Prompt: Which outcome was entered for the molecule COc1ccc2c(c1OC)C(=O)OC2Nc1nc(-c2ccccc2)cs1 (stereo not given) in this test?
Response: Yes

Prompt: Outcome? O=C(c1ccc2c(c1)N(Cc1ccccc1)C(=O)c1ccccc1S2(=O)=O)N1CCC(Cc2ccccc2)CC1
Response: Yes

Prompt: Dear all, I need the recorded test outcome for COc1cc2c(cc1OC)[C@@H](Cc1cc(OC)c(OC)c(OC)c1)[N+](C)(CCCOC(=O)CC/C=C/CCC(=O)OCCC[N+]1(C)CCc3cc(OC)c(OC)cc3[C@H]1Cc1cc(OC)c(OC)c(OC)c1)CC2 (stereo not given in full) , thank you.
Response: No

Prompt: Would you mind telling me which call this test gave O=C(NCc1ccncc1)C1CCN(C(=O)c2cccc(Cl)c2)CC1 ?
Response: No

Prompt: I would be grateful if you could indicate the recorded call for CSc1ncc(C(=O)Nc2ccc(C)cc2C)c(C)n1 .
Response: No

Prompt: Which result was noted for this molecule in the test: COc1ccc(CC2c3cc(OC)c(OC)cc3CC[N+]2(C)CCC(=O)OCCCCCOC(=O)CC[N+]2(C)CCc3cc(OC)c(OC)cc3C2Cc2ccc(OC)c(OC)c2)cc1OC (stereo not given)
Response: Yes

Prompt: Which outcome did this test record for the molecule O=C(c1ccc2c(c1)N(Cc1ccccc1F)C(=O)c1ccccc1S2(=O)=O)N1CCOCC1 ?
Response: No

Prompt: Identify the outcome logged in this assay for the molecule shown: Cc1ccc(NC(=O)c2ccc(CSc3ncnc4nc[nH]c34)cc2)c(C)c1
Response: Yes

Prompt: Please share the test call associated with O=C1c2ccccc2S(=O)(=O)c2cc(N3CCN(c4ccccn4)CC3)ccc21 .
Response: No

Prompt: Look up the recorded call for O=C(O)C(=Cc1ccccc1[N+](=O)[O-])c1ccccc1 in this test.
Response: No

Prompt: Hi, sorry to bother you, what did the test record for CC(C)(C)C1CCC(NC(=O)c2cnn3c2NC(=C2CC2)C=C3C(F)F)CC1 (stereo not given) ?
Response: Yes

Prompt: Per the assay record, what outcome was assigned to CC1CCCN(C(=O)CN2C(=O)c3ccccc3S2(=O)=O)C1 (stereo not given) ?
Response: No

Prompt: Dear colleague, could you share the recorded outcome for CCc1nn(CC(=O)N2CCN(CC)CC2)c(=O)c2cccn12 when you have a moment?
Response: No

* * *

protocol: qHTS for Inhibitors of human tyrosyl-DNA phosphodiesterase 1 (TDP1): qHTS in cells in presence of CPT; also: nearly all actives have a fitted effect of over 55% in size
measurementParameters: chicken DT40 Tdp1-/-;hTDP1 cells + 20 nM CPT, ATP luminescence, 48 h; series mostly up to 46.2 µM
Hit rate of the full screen: of about 420,000 compounds, about 50,000 (12%) were called active. About 26% were inconclusive and are not listed. The call rests on the fitted dose curve; in most records, active means well fitted inhibition curve with a large enough effect; inconclusive means small, poorly fitted or top-dose-only effect; inactive means flat fitted curve, though single readings scatter. The full list was thinned out, with actives kept by preference.
Classes to choose from: Yes (active), No (inactive)

> print(dat)
                                   molecule  assignedclass
1  CCNC(=O)C1(C)CCN(Cc2ccc(C(=O)OCC)o2)C1 (stereo not drawn)             No
2  CCCNC(=O)C1(C)CCCN(Cc2cccc(C(F)(F)F)c2)C1 (stereo not drawn)            Yes

Here's the next entry for you.
Prompt: Entry Cc1nnc(SCc2nc3ccccc3nc2C)s1 : call = ?
Response: No

* * *

protocol: qHTS for Inhibitors of human tyrosyl-DNA phosphodiesterase 1 (TDP1): qHTS in cells in presence of CPT; also: nearly all actives have a fitted effect of over 55% in size
measurementParameters: chicken DT40 Tdp1-/-;hTDP1 cells + 20 nM CPT, ATP luminescence, 48 h; series mostly up to 46.2 µM
Out of some 420,000 compounds screened, about 50,000 (12%) were called active. Inconclusive results (about 26%) are left out. The call rests on the fitted dose curve; in most records, active means well fitted inhibition curve with a large enough effect; inconclusive means small, poorly fitted or top-dose-only effect; inactive means flat fitted curve, though single readings scatter. Only a selection was taken, and actives are over-represented in it overall.
Outcome (select one): label 1 for active, label 0 for inactive

A selection of reference data follows.
> print(dat)
                                   molecule  assignedclass
1  C[C@@H](C(=O)Nc1ccc2ccccc2c1)[C@@H]1C[C@@]1(C)[C@@H](NC(=O)c1cccnc1)c1ccccc1        label 0
2      Cc1ccc(-c2noc(CNC(=O)c3ccoc3C)n2)cc1        label 0
3        O=C(Nc1nnc(-c2ccccc2F)s1)c1ccccc1F        label 0
4  COCC1CCN(C(=O)c2ccc3oc(Cc4ccccc4)nc3c2)C1 (stereo unspecified)        label 0

Prompt: Could you check what this test reported for N#CC1(NC(=O)COC(=O)CCN=C2NS(=O)(=O)c3ccccc32)CCCCC1 ?
Response: label 0

Prompt: Given O=C(Nc1cccc(NC(=O)c2ccc(Br)cc2)c1)c1ccccc1 , state the outcome it received in this test.
Response: label 0

* * *

protocol: qHTS for Inhibitors of human tyrosyl-DNA phosphodiesterase 1 (TDP1): qHTS in cells in presence of CPT; also: nearly all actives have a fitted effect of over 55% in size
measurementParameters: chicken DT40 Tdp1-/-;hTDP1 cells + 20 nM CPT, ATP luminescence, 48 h; series mostly up to 46.2 µM
About 50,000 (12%) of roughly 420,000 compounds were called active. Inconclusive results (about 26%) are left out. The call rests on the fitted dose curve; in most records, active means well fitted inhibition curve with a large enough effect; inconclusive means small, poorly fitted or top-dose-only effect; inactive means flat fitted curve, though single readings scatter. What follows is part of a selection rich in actives, with near analogues and random picks from the rest.
Answer with one of the outcomes given here: 1 (yes) (active), 0 (no) (inactive)

> print(dat)
                                   compound  assignedclass
1  Cc1ccc(Cn2c(=O)n(Cc3nc(-c4ccccc4)no3)c(=O)c3cc4c(cc32)OCO4)cc1         0 (no)

Prompt: What did this assay record as the result for CC(=O)c1nn(-c2ccccc2)c(=Nc2ccccc2)cc1C ?
Response: 0 (no)

Prompt: # fetch the recorded call for COc1ccc(NS(=O)(=O)c2ccc(C)c(C(=O)NNC(=O)c3csc(N4CCOCC4)n3)c2)cc1 here
Response: 0 (no)

Prompt: Fill in: this test's call for CCOC(=O)N1CCN(S(=O)(=O)c2ccc(C(=O)Nc3ccc(F)cc3F)cc2)CC1 is ___
Response: 1 (yes)

Prompt: Short answer needed: outcome of this test for O=C1NC(=O)C(CCc2ccccc2)(c2ccccc2)N1 (stereo not given) ?
Response: 0 (no)

Prompt: # fetch the recorded call for CCOc1ccc(C(=O)Nc2cc(Cl)ccc2-n2cncn2)cc1OC here
Response: 0 (no)

Prompt: Per the records of this test, what outcome belongs to O=C(Cc1ccc([N+](=O)[O-])cc1)N/N=C/c1ccco1 ?
Response: 0 (no)

Prompt: Each compound tested received a call. Report the one for O=C(NCC(O)c1ccc([N+](=O)[O-])cc1)C1CCCCC1 (stereo not given) .
Response: 0 (no)

Prompt: Please indicate how the test categorized CC(CN1CCCCC1)c1ccccc1 (stereo not given) .
Response: 0 (no)

Prompt: Could you check what this test reported for COc1cc(-c2nnc(NC(=O)CS(=O)(=O)c3ccc(Cl)cc3)o2)cc(OC)c1OC ?
Response: 0 (no)

* * *

protocol: qHTS for Inhibitors of human tyrosyl-DNA phosphodiesterase 1 (TDP1): qHTS in cells in presence of CPT; also: nearly all actives have a fitted effect of over 55% in size
measurementParameters: chicken DT40 Tdp1-/-;hTDP1 cells + 20 nM CPT, ATP luminescence, 48 h; series mostly up to 46.2 µM
About 50,000 (12%) of roughly 420,000 compounds were called active. Not shown: some 26% with an inconclusive outcome. Calls follow the shape of the dose curve; as a rule, active = well fitted inhibition curve with a large enough effect; inconclusive = small, poorly fitted or top-dose-only effect; inactive = flat fitted curve, though single readings scatter. Shown is part of a subset that was picked to be rich in actives.
The reply should name one outcome from 1 (yes) = active, 0 (no) = inactive

A selection of reference data follows.
> print(dat)
                                   compound  assignedclass
1  COc1cccc(CNC(=O)CN(C)S(=O)(=O)c2ccc3c(c2)c(=O)n(C)c(=O)n3C)c1         0 (no)
2                S=C(NCCC1=CCCCC1)Nc1ccccc1        1 (yes)
3                 S=C(NCCc1ccccc1)Nc1ccccc1         0 (no)
4  CC(=O)Nc1ccc(S(=O)(=O)N(C)CC(=O)NCCC2=CCCCC2)cc1         0 (no)
5      O=C(Nc1cccc([N+](=O)[O-])c1)Nn1cnnc1         0 (no)

Prompt: Check the results log: what was the call for CCCCCCCC[n+]1cccc(C(=O)N2c3c(nc(N)[nH]c3=O)NC(C)C2C)c1 (stereo unspecified) ?
Response: 0 (no)
